Assay: Solubility in compendial aqueous media
Format: physicochemical
Details: Hydrochloric Acid 0.1 N (pH = 1.2); 37 °C, 30 min; mean ± standard deviation, n = 3
Method: Solubility assessment was conducted in compendial aqueous solutions prepared according to United States Pharmacopoeia USP39/NF34): hydrochloric acid 0.1 N pH 1.2, acetate buffer pH 4.5 and phosphate buffer 6.8. […] The assay was performed using a SpectraMax Plus 84 Plate reader reader (Sunnyvale, CA, USA), Molecular Devices LLC (US), equiped with SoftMax software version 6.4.2 (Sunnyvale, CA, USA). […]
PROPERTY_NAME: solubility in compendial media (µg/mL)
Express your answer in µg/mL, writing the number without its unit.

Req: Any idea what solubility in compendial media was measured for COc1cccc(C=NNC(=O)c2ccncc2)c1[O-].O.O.[Cl-].[Cu+2] [complex 1, [Cu(L)(Cl)]·2H2O] ?
Resp: 2.34

Req: Okay, and CC(=O)[O-].COc1cccc(C=NNC(=O)c2ccncc2)c1[O-].[Cu+2] [complex 2, [Cu(L)(CH3COO)]] ?
Resp: 1.75

Req: Okay, and COc1cccc(C=NNC(=O)c2ccncc2)c1[O-].COc1cccc(C=NNC(=O)c2ccncc2)c1[O-].[Zn+2] [complex 6, [Zn(L)2]] ?
Resp: 1.65
